# assay-system: Cytochrome P450 2E1 (Homo sapiens); also: in other assays of this panel Not Active means under 50% inhibition at 10 µM
# Sequence (P05181 whole entry): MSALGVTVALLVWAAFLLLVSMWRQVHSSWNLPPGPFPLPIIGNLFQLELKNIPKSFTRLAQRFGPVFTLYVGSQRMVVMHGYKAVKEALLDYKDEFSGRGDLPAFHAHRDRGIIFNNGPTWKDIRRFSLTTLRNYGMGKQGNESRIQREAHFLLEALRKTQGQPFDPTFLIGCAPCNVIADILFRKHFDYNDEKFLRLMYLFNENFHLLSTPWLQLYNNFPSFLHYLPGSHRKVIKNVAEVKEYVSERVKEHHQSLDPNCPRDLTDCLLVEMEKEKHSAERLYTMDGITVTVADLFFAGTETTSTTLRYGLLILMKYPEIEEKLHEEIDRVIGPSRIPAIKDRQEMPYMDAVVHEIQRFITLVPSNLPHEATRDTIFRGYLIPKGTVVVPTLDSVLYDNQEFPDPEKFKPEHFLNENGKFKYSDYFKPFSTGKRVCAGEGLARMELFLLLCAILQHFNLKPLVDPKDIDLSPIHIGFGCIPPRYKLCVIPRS
# study-conditions: bti-tn-5b1-4
quantity-name: IC50

For reference, reported IC50 for COc1ccc(C(CN(C)C)C2(O)CCCCC2)cc1 (stereo not drawn) [VENLAFAXINE] stands at Not Active

The recorded IC50 for entry C=CC[C@@H]1/C=C(\C)C[C@H](C)C[C@H](OC)[C@H]2O[C@@](O)(C(=O)C(=O)N3CCCC[C@H]3C(=O)O[C@H](/C(C)=C/[C@@H]3CC[C@@H](O)[C@H](OC)C3)[C@H](C)[C@@H](O)CC1=O)[C@H](C)C[C@@H]2OC [TACROLIMUS ANHYDROUS] equals Not Active

For reference, reported IC50 for Nc1nc(=O)[nH]cc1F [FLUCYTOSINE] stands at Not Active

These measurements were taken from ChEMBL document CHEMBL1909046.
